Target: human CD33 on CD33-expressing THP-1 cells (human, UniProt P20138 18-364)
Sequence (P20138 18-364): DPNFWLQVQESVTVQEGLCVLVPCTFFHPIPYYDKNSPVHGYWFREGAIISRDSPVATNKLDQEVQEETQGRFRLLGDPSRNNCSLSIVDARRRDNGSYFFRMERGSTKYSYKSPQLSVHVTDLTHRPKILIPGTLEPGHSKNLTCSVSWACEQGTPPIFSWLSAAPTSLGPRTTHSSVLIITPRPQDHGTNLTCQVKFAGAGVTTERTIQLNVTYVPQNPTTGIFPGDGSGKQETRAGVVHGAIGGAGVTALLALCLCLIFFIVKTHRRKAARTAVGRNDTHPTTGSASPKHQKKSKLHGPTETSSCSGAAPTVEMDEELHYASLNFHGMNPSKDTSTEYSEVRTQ
Assay: cell-based or functional assay
OBSERVED PROPERTY: Cytotox EC50 (nM) Donor 104

>  <BINDER>
scFv-VHH bispecific molecule JL6 x 6H4 (scFv (VL-L-VH)-L-VHH with C-tag) (bispecific antibody) QSVLTQPPSASGTPGQRVTISCSGSSSNIGSNPVNWYQQLPGTAPKLLIYSNNQRPSGVPDRFSGSKSGTSASLAISGLQSEDEADYFCAAWDDSLNGPVFGGGTKLTVLGGSEGKSSGSGSESKSTGGSQVQLQESGPGLVKPSETLSLTCTVSGGSISSYYWGWIRQPPGKGLEWIGYIYYSGSTNYNPSLKSRVTISVDTSKNQFSLKLSSVTAADTAVYYCARMWEILGFDPWGQGTLVTVSSGGGGSEVQLVESGGGLVQAGGSLRLSCAASGRPFSNYGMGWFRQAPGKKREFVAGISWSGGSTDYADSVKGRFTISRDNAKNTVYLQMNSLKPEDTAVYYCAAVFSGAETAYYPSDDYDYWGQGTQVTVSSAAAEPEA

>  <OUTPUT UNIT>
nM

>  <VALUE OBSERVED>
0.0012

$$$$

The reported numbers originate from patent US20240409634A1.
